- SUBJECT OF TEST: Sulfhydryl oxidase 1 (Homo sapiens) (UniProt O00391)
- Sequence (O00391 whole entry, looked up): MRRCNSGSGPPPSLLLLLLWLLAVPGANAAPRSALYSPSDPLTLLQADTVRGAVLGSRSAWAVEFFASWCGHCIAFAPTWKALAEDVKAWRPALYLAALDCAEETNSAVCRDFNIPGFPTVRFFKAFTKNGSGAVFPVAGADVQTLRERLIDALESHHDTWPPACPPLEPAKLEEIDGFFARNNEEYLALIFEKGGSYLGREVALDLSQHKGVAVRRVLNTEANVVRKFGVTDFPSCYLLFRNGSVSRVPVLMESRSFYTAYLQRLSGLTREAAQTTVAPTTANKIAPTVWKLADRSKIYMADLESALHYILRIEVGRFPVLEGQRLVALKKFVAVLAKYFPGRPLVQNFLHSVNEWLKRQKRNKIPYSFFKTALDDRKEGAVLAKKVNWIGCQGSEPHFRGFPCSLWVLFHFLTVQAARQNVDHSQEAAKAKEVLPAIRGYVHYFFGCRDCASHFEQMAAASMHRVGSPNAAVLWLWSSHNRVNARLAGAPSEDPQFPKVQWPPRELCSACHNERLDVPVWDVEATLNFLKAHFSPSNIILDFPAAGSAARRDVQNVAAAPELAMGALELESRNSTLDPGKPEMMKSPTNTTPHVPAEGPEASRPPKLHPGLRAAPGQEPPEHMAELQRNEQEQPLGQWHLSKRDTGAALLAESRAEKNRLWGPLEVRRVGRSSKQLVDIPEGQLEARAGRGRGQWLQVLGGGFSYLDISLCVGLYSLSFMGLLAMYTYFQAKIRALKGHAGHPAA
- EXPERIMENT DESCRIPTION: inhibition of human sulfhydryl oxidase QSOX1 – biochemical, HyperBlu H2O2 luminescence, HTS, primary screen (AID 1347420); also: values above 100% were filed as inconclusive
- EXPERIMENTAL CONTEXT: recombinant QSOX1, HyperBlu H2O2 luminescence; at 12.5 µM; active compounds read high; active = any value above zero
The whole screen tested about 1,300 compounds, of which about 980 (75%) were called active. About 4% were inconclusive and are not listed. Some of the results follow.
Lab note: assign the record to one of Yes = active, No = inactive

Problem: Test call, this compound: O=c1[nH]c2cc(C(F)(F)F)ccc2n1-c1cc(C(F)(F)F)ccc1O
Result: Yes

Problem: Test call, this compound: NC(=O)OCC(COC(N)=O)c1ccccc1
Result: Yes

Problem: Test call, this compound: O=C(CCCN1CCC(O)(c2ccc(Cl)cc2)CC1)c1ccc(F)cc1
Result: Yes

Problem: Test call, this compound: O=C(O)CC1CCCc2ccccc2C1O (configuration not stated)
Result: Yes

Problem: Test call, this compound: N[C@H](C(=O)O)[C@H]1C[C@@H]1C(=O)O
Result: Yes

Problem: Test call, this compound: O=C(CCCN1CCC(O)(c2cccc(C(F)(F)F)c2)CC1)c1ccc(F)cc1
Result: Yes

Problem: Test call, this compound: Cc1[nH]c(=O)c(C#N)cc1-c1ccc2nccn2c1
Result: Yes

Problem: Test call, this compound: CN1CCc2ccccc2Cc2[nH]c3ccccc3c2CC1
Result: Yes

Problem: Test call, this compound: O=c1cc(-c2ccccc2F)[nH]c2cc3c(cc12)OCO3
Result: Yes

Problem: Test call, this compound: CCc1ccc(/C=C2/SC(=S)NC2=O)cc1
Result: Yes

Problem: Test call, this compound: Nc1ncnc2c1nc(Br)n2C1OC2COP(=O)(O)O[C@@H]2C1O (some centres not stated)
Result: Yes

Problem: Test call, this compound: CCCCCCCCCCCCCCC[C@H](O)[C@H](N)CO
Result: Yes

Problem: Test call, this compound: Nc1ncnc2c1nc(Sc1ccc(Cl)cc1)n2C1OC2COP(=O)(O)O[C@@H]2[C@@H]1O (some centres not stated)
Result: Yes

Problem: Test call, this compound: COc1cc2nc(N3CCN(C(=O)c4ccco4)CC3)nc(N)c2cc1OC
Result: Yes

Problem: Test call, this compound: O=C(O)CNC(=O)C(CS)Cc1ccccc1 (configuration not stated)
Result: Yes

Problem: Test call, this compound: CN(C)C(=O)C(CCN1CCC(O)(c2ccc(Cl)cc2)CC1)(c1ccccc1)c1ccccc1
Result: No

Problem: Test call, this compound: Nc1ncnc2c1c(-c1ccc(Oc3ccccc3)cc1)cn2C1CCCC1
Result: Yes

Problem: Test call, this compound: C[C@H](Cc1ccccc1)Nc1ncnc2c1ncn2[C@@H]1O[C@H](CO)[C@H](O)C1O (some centres not stated)
Result: No

Problem: Test call, this compound: COC(=O)[C@H]1[C@H]2C[C@@H]3c4[nH]c5cc(OC)ccc5c4CCN3C[C@H]2C[C@@H](OC(=O)c2cc(OC)c(OC)c(OC)c2)[C@@H]1OC
Result: Yes

Problem: Test call, this compound: OC[C@H]1O[C@@H](n2cnc3c(NC4CCCCC4)ncnc32)[C@H](O)[C@@H]1O
Result: Yes

Problem: Test call, this compound: CN1CCN(c2nc3cc(C(F)(F)F)ccc3n3cccc23)CC1
Result: Yes

Problem: Test call, this compound: COC(=O)[C@H]1[C@H]2C[C@H]3c4[nH]c5ccccc5c4CCN3C[C@H]2CC[C@@H]1O
Result: Yes
